Reported selective drug sensitivity score by item:
# System: MHH-CALL-2;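 also: ALL cell lines in 384-well plates, five doses spanning 10,000-fold, each plate scaled between vehicle and 100 µmol/L benzalkonium chloride controls, sDSS an adapted area-under-curve metric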
# protocol-notes: selective drug sensitivity score (sDSS, relative to normal bone marrow) (sDSS (score)); higher = more potent and effective on the cell line relative to normal bone marrow cells
# study-conditions: 72 h

// known answers, use as guide
[
  {
    "compound": "C=C1C[C@@H]2CC[C@@]34C[C@H]5O[C@H]6[C@@H](O3)[C@H]3O[C@H](CC[C@@H]3O[C@H]6[C@H]5O4)CC(=O)C[C@@H]3[C@@H](OC)[C@@H](C[C@H](O)CN)O[C@H]3C[C@H]3O[C@@H](CC[C@@H]1O2)C[C@@H](C)C3=C [Eribulin] (top concentration 1000 nM)",
    "selective drug sensitivity score": 15.8
  },
  {
    "compound": "COc1cc(Nc2ncc(F)c(Nc3ccc4c(n3)N(COP(=O)(O)O)C(=O)C(C)(C)O4)n2)cc(OC)c1OC [Fostamatinib] (top concentration 2500 nM)",
    "selective drug sensitivity score": 0.56
  },
  {
    "compound": "NCC(=O)Nc1ccc(-n2nc(C(F)(F)F)cc2-c2ccc3c(ccc4ccccc43)c2)cc1 (top concentration 25000 nM)",
    "selective drug sensitivity score": 7.1
  },
  {
    "compound": "Cc1c(Cn2c(C)nc3c(C(=O)O)cc(N4CCOCC4)cc32)cccc1C(F)(F)F (top concentration 10000 nM)",
    "selective drug sensitivity score": 0.58
  }
]

Challenge: Looking for the measured selective drug sensitivity score of O=C(O)CNC(=O)c1c(O)c2ccccc2n(Cc2ccccc2)c1=O [IOX-2] (top concentration 50000 nM) , can you help?
Response given: 1.78

Challenge: Then this compound: C[C@@H](Oc1ccc2[nH]nc(/C=C/c3cnn(CCO)c3)c2c1)c1c(Cl)cncc1Cl (top concentration 1000 nM)
Response given: -0.74

Challenge: Then this compound: Cc1cc(F)c(C(=O)Nc2cccc(-c3nncn3C(C)C)n2)cc1-n1cnc(C2CC2)c1 [Selonsertib] (top concentration 1000 nM)
Response given: 11.5

Challenge: Then this compound: Cc1cc2c(C(=O)NC[C@H](C)c3ccccc3)c(O)c(O)cc2c(O)c1-c1c(C)cc2c(C(=O)NC[C@H](C)c3ccccc3)c(O)c(O)cc2c1O [Sabutoclax] (top concentration 25000 nM)
Response given: -7.82

Challenge: Then this compound: CN(C)C[C@@H]1CCn2cc(c3ccccc32)C2=C(C(=O)NC2=O)c2cn(c3ccccc23)CCO1 [Ruboxistaurin] (top concentration 10000 nM)
Response given: 3.66

Challenge: Then this compound: CCc1nc(C(N)=O)c(Nc2ccc(N3CCC(N4CCN(C)CC4)CC3)c(OC)c2)nc1NC1CCOCC1 [Gilteritinib] (top concentration 1000 nM)
Response given: -1.32

Challenge: Then this compound: Sc1ncnc2nc[nH]c12 [Mercaptopurine] (top concentration 10000 nM)
Response given: 13.4
